# System: SR leukemia
# TEST_DETAILS: NCI tumour cell line growth inhibition, 48 h
Measured TGI, listed per entry for reference.

Some compounds with recorded TGI:
>>> reported_result("N=C1N=Nc2nc(C3(c4nc5n(c4O)C(=N)N=N5)Cc4ccccc4C3=O)c(O)n21 (stereo not given)")
"> 100 µM"
>>> reported_result("O=C(CCc1cc(-c2ccco2)n(-c2ccc([N+](=O)[O-])cc2[N+](=O)[O-])n1)Nc1ccccc1")
"> 100 µM"

Ask: Under SR leukemia: TGI value of N=c1c2c(=O)n3c(nc2nc2sc4ccc(Cl)cc4n12)-c1ccccc1Sc1ccccc1-3 ?
Result: 9.14 µM

Ask: Provide value of TGI for this record tested with SR leukemia: Cc1c(C)c2ccc(O)cc2[nH]c1=O
Result: > 100 µM

Ask: # returns recorded TGI (system: SR leukemia) for CC(=O)OCC(OC(C)=O)C(OC(C)=O)C(OC(C)=O)C(/C=N\Nc1nc2ccccc2c(=O)[nH]1)OC(C)=O (stereo not given)
Result: > 100 µM

---

# Test system: HCT-116 colon
# TEST_DETAILS: NCI tumour cell line growth inhibition, 48 h; in the data active = GI50 below about 0.43 µM; inactive = the rest
Valid outcomes are listed here; reply with one: active, inactive

Check out these entries, answers already filled in.
>>> label("Cc1ccc(S(=O)(=O)C2=C3C(=C(c4ccccc4)c4ccccc43)CN(S(=O)(=O)c3ccc(C)cc3)C2)cc1")
"inactive"
>>> label("N=c1c2c(=O)n3c(nc2nc2sc4ccc(Cl)cc4n12)-c1ccccc1Sc1ccccc1-3")
"inactive"

--- query ---
Ask: Check the results log: what was the call for COc1cc2c(/C=C3/C(=O)Nc4c3ccc3ccccc43)c(Cl)[nH]c2cc1C ?
Result: active

---

# System: HOP-92 NSCLC
# TEST_DETAILS: NCI tumour cell line growth inhibition, 48 h
PROPERTY_NAME: log10 of TGI (log10 of the value in µM)
// units: µM (pre-log); metric: TGI; scale: log10

Ask: Fill blank: measured log10 of TGI of the molecule Cn1cc(C2=C(c3cccc(NCC(O)CO)c3)C(=O)NC2=O)c2cc(Cl)ccc21 (stereo unspecified) is ____.
Result: 1.15

Ask: Which value of log10 of TGI has been reported for O=C(CN1CCCC1)Nc1ccc2sc3ccccc3c(=O)c2n1 in the records?
Result: 1.87

Ask: What measured log10 of TGI goes with O=C1NCN(c2ccccc2)C12CCN(CCCSc1ccc(F)cc1)CC2 ?
Result: 1.62

Ask: log10 of TGI for CCCCN1C(=O)C[C@H]2[C@@H]3CCc4cc(OCCN5CCCC5)ccc4[C@H]3CC[C@]2(C)C1=O ?
Result: 1.26

Ask: Which log10 of TGI value is on record for CCN1CCN(Cc2ccc3cc(C(=O)Nc4cc(NC(=O)c5ccc6c(c5)OCCO6)ccc4F)ccc3n2)CC1 ?
Result: -0.25

---

# System: SK-MEL-5 melanoma
# TEST_DETAILS: NCI tumour cell line growth inhibition, 48 h
PROPERTY_NAME: TGI

Illustrative cases are given below, each with its answer.
>>> reported_result("O=C1C(c2c(O)[nH]c3ccc(S(=O)(=O)N(CCO)CCO)cc23)=Nc2ccccc21")
"> 100 µM"
>>> reported_result("Cn1c(=O)c2c(nc3sc4ncccc4c(=O)n32)n(C)c1=O")
"> 100 µM"
>>> reported_result("COc1cc(OC)nc(NC(=O)NS(=O)(=O)c2cccc3ncn(C)c(=O)c23)n1")
"> 100 µM"
>>> reported_result("NC(CCCNCc1ccccc1O)C(=O)O (stereo not given)")
"> 100 µM"
>>> reported_result("Cn1cc(C2=C(c3cccc(NCC(O)CO)c3)C(=O)NC2=O)c2cc(Cl)ccc21 (stereo not given)")
"7.14 µM"

Ask: Write down the reported TGI of CCNCCNc1cc(C2CCCC2)c(C#N)c2nc3ccccc3n12 , test system: SK-MEL-5 melanoma.
Result: 3.31 µM

Ask: Record COc1ccc2c(c1)CC[C@@H]1[C@@H]2CC[C@]2(C)c3c(cc(C(=O)c4ccccc4)c4sccc34)C[C@@H]12 : what is its TGI with SK-MEL-5 melanoma?
Result: > 100 µM

Ask: Form field: TGI recorded for Clc1ccc(CCn2cncn2)c(Cl)c1 with SK-MEL-5 melanoma (enter value)
Result: > 100 µM

Ask: What reported TGI corresponds to COC(=O)c1cc(O)ccc1NC(=O)c1ccc(O)cc1 on SK-MEL-5 melanoma?
Result: > 100 µM

Ask: Form field: TGI recorded for COc1cc(C2SC(N)=Nc3c2c(C)nn3C(=O)Cc2ccccc2)ccc1O (stereo not given) with SK-MEL-5 melanoma (enter value)
Result: > 100 µM
